All figures here come from PubChem BioAssay AID2060901.

Test system: 422866-222-R5-J1-PDC complex spheroids viability;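 further: spheroids exposed to compounds for 7 days; 100% = DMSO vehicle control viability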
protocol_text: Anticancer human tumor 422866-222-R5-J1-PDC patient-derived pancreatic adenocarcinoma cell line growth inhibition [RAS]
particulars: second compound 0.0949 µM; first compound 0.000949 µM; stronger effect = lower value
measurement_name: viability, T/C (%)

>>> observed_value("CC1(C)CCC(Nc2ncc(C(F)(F)F)c(-c3c[nH]c4c(P(C)(C)=O)c(C#N)ccc34)n2)CN1 (centres undefined) + CCn1c(-c2cccnc2C(C)OC)c2c3cc(ccc31)N1CCOC(CC(NC(=O)C(C(C)C)N(C)C(=O)C3(F)CCN(C(=O)C#CC(C)(C)N(C)C)CC3)C(=O)N3CCCC(N3)C(=O)OCC(C)(C)C2)C1")
20.1
>>> observed_value("CCc1c2c(nc3ccc(O)cc13)-c1cc3c(c(=O)n1C2)COC(=O)[C@]3(O)CC + CCn1c(-c2cccnc2C(C)OC)c2c3cc(ccc31)N1CCOC(CC(NC(=O)C(C(C)C)N(C)C(=O)C3(F)CCN(C(=O)C#CC(C)(C)N(C)C)CC3)C(=O)N3CCCC(N3)C(=O)OCC(C)(C)C2)C1")
15.9
>>> observed_value("CCc1c2c(nc3ccc(O)cc13)-c1cc3c(c(=O)n1C2)COC(=O)[C@]3(O)CC + CCn1c(-c2cc(N3CCN(C)CC3)cnc2C(C)OC)c2c3cc(ccc31)-c1csc(n1)CC(NC(=O)C1CC1C)C(=O)N1CCCC(N1)C(=O)OCC(C)(C)C2")
17
>>> observed_value("CC1(C)CCC(Nc2ncc(C(F)(F)F)c(-c3c[nH]c4c(P(C)(C)=O)c(C#N)ccc34)n2)CN1 (centres undefined) + CCn1c(-c2cc(N3CCN(C)CC3)cnc2C(C)OC)c2c3cc(ccc31)-c1csc(n1)CC(NC(=O)C1CC1C)C(=O)N1CCCC(N1)C(=O)OCC(C)(C)C2")
19.1
